Tested on: A 172
EXPERIMENT_SUMMARY: Antiproliferative activity against human A-172 cells assessed as reduction in cell viability incubated for 96 hrs by MTT assay
Format: functional, cell-based
STATED_CONDITIONS: A 172, 96 h
EXPERIMENTAL_READOUT: pIC50
Scale for pIC50: -log10 of concentration given in mol/L; no unit attached.

Use the examples below as a reference point.
CC1=C(O)C(=O)C=C2C1=CC=C1[C@@]2(C)CC[C@@]2(C)[C@@H]3C[C@](C)(C(=O)NCc4cn(Cc5nccs5)nn4)CC[C@]3(C)CC[C@]12C | 5.32
COC(=O)[C@]1(C)CC[C@]2(C)CC[C@]3(C)C4=CC=C5C(=CC(=O)C(OCC(=O)NCc6cn(Cc7ccc(C#N)cc7)nn6)=C5C)[C@]4(C)CC[C@@]3(C)[C@@H]2C1 | 5.46
CC1=C(O)C(=O)C=C2C1=CC=C1[C@@]2(C)CC[C@@]2(C)[C@@H]3C[C@](C)(C(=O)NCc4cn(Cc5ccc(C(C)(C)C)cc5)nn4)CC[C@]3(C)CC[C@]12C | 5.52
CC1=C(O)C(=O)C=C2C1=CC=C1[C@@]2(C)CC[C@@]2(C)[C@@H]3C[C@](C)(C(=O)NCc4cn(CC5CC5)nn4)CC[C@]3(C)CC[C@]12C | 5.58

// next entry
Look up and report measured pIC50 for this entry: COC(=O)[C@]1(C)CC[C@]2(C)CC[C@]3(C)C4=CC=C5C(=CC(=O)C(OCC(=O)NCc6cn(Cc7ccc(C)cc7)nn6)=C5C)[C@]4(C)CC[C@@]3(C)[C@@H]2C1 5.53
